FYI, the data here is from paper PMC5540273.

System: NLK
experimental_setup: concentration: 1 μM, replicates: in singlicate; n = 1;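 note: KINOMEscan kinase panel screen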
measure_name: %Inh (%)
Give the quantity in %, number only.

The cases that follow already have their %Inh on record.
# molecule, %Inh, %
data = [
    ("O=c1cc(N2CCOCC2)nc2n(Cc3ccc(F)c(Cl)c3)ccn12", 14),
    ("O=C(Nc1ccc2c(c1)OCO2)NC1CCN(c2ccnc(NCc3ccc(F)cc3)n2)CC1", 11),
    ("Cl.c1ccc(Cn2cnc3cc(Nc4ncnc5ccccc45)ccc32)cc1", 0),
    ("Nc1ncnc2c1ncn2-c1cccc(F)c1", 0),
    ("Nc1n[nH]c2ncc(-c3ccccc3)cc12", 13),
    ("COc1cccc(-n2cnc3c(N)ncnc32)c1", 0),
]

The value of %Inh measured for the molecule CC(C)(C)c1ccc(C(=O)Nc2cn3cc(-c4ccccc4)ccc3n2)cc1 turned out to be 0

The value of %Inh measured for the molecule COC(=O)c1c(-c2ccccc2)c2cc(Br)ccc2c(=O)n1Cc1ccc(NC(=O)CCC(=O)O)cc1 turned out to be 0

The value of %Inh measured for the molecule COC(=O)c1c(-c2ccccc2)c2cc(Br)ccc2c(=O)n1Cc1ccc(S(C)(=O)=O)cc1 turned out to be 0

###

System: DCAMKL1
Construct: gene DCLK1
experimental_setup: concentration: 1 μM, replicates: in singlicate; n = 1
%Inh for assorted compounds
Give the quantity in %, number only.

# compound, %Inh, %
records = [
    ("COc1ccc(Nc2nccc(N3CCC(NS(=O)(=O)c4ccc(NC(C)=O)cc4)C3)n2)cc1 (centres unmarked)", 10),
    ("CN1C(=O)C(Nc2ccccc2)=C(c2ccccc2)C1=O", 22),
    ("COC(=O)c1c(-c2ccccc2)c2cc(Br)ccc2c(=O)n1Cc1ccc(NC(=O)CCC(=O)O)cc1", 16),
    ("Nc1ncnc2c1ncn2-c1cccc2ccccc12", 0),
]

We next turn to a different compound, shown below.
The value of %Inh measured for the compound CCCC(=O)Nc1n[nH]c2ncc(-c3cccc4ccccc34)cc12 turned out to be 18

###

Tested on: NDR2
experimental_setup: concentration: 1 μM, replicates: in singlicate; n = 1
%Inh for assorted compounds
Give the quantity in %, number only.

# structure_string, target_of_assay, experimental_value
measured = [
    ("CCCNC(=O)Nc1ccc(Oc2ncnc3ccn(C)c23)cc1", "NDR2", 0),
    ("CCS(=O)(=O)c1ccc(OC)c(Nc2ncc(-c3ccc(F)cc3)o2)c1.Cl", "NDR2", 0),
    ("Nc1nc(-c2ccccc2F)c(-c2ccnc3ccccc23)s1", "NDR2", 0),
    ("Fc1cccc(CSc2nnc(-c3ccc4c(c3)CCO4)o2)c1", "NDR2", 22),
]

Entry Cc1nnc(-c2ccc(C)c(-c3ccc(C(=O)O)cc3)c2)o1 : %Inh on NDR2 = 0

Entry O=C(Nc1ccc2c(c1)OCO2)NC1CCN(c2ccnc(NCc3ccc(F)cc3)n2)CC1 : %Inh on NDR2 = 0

Entry COc1cccc(C2=C(N(C)c3ccccc3)C(=O)NC2=O)c1 : %Inh on NDR2 = 0

Entry Cl.NS(=O)(=O)c1cccc(Nc2cc(-c3ccc(F)cc3)n[nH]2)c1 : %Inh on NDR2 = 5
